Test system: Staphylococcus aureus
Test: Antibacterial activity against Staphylococcus aureus ATCC 25923 assessed as bacterial growth inhibition incubated for 20 to 24 hrs by microbroth serial dilution assay
Format: functional
Conditions: time 20-24 hrs
# MIC per entry
Report the figure in µg/mL without appending any unit label.

1) C=C[C@]1(C)C[C@@H](OC(=O)CSc2nc(N)nc3c2ncn3C(=O)NCc2cccc(OC)c2)[C@@]2(C)C3C(=O)CC[C@@]3(CC[C@H]2C)[C@@H](C)[C@@H]1O (stereo partly specified); 0.125
2) C=C[C@]1(C)C[C@@H](OC(=O)CSc2nc(NC(=O)CCl)nc3[nH]cnc23)[C@@]2(C)C3C(=O)CC[C@@]3(CC[C@H]2C)[C@@H](C)[C@@H]1O (stereo partly specified); 0.5
3) C=C[C@]1(C)C[C@@H](OC(=O)CSc2nc(N)nc3[nH]cnc23)[C@@]2(C)C3C(=O)CC[C@@]3(CC[C@H]2C)[C@@H](C)[C@@H]1O (stereo partly specified); 0.25
4) C=C[C@]1(C)C[C@@H](OC(=O)CSc2nc(N)nc3c2ncn3C(=O)Nc2ccccc2OC)[C@@]2(C)C3C(=O)CC[C@@]3(CC[C@H]2C)[C@@H](C)[C@@H]1O (stereo partly specified); 0.25
5) C=C[C@]1(C)C[C@@H](OC(=O)CSc2nc(N)nc3c2ncn3C(=O)Nc2ccc(F)cc2)[C@@]2(C)C3C(=O)CC[C@@]3(CC[C@H]2C)[C@@H](C)[C@@H]1O (stereo partly specified); 0.125

query: Looking for the measured MIC of C=C[C@]1(C)C[C@@H](OC(=O)CSc2nc(N)nc3c2ncn3C(=O)c2ccc(C)cc2)[C@@]2(C)C3C(=O)CC[C@@]3(CC[C@H]2C)[C@@H](C)[C@@H]1O (stereo partly specified) , can you help?
result: 0.125

query: Look up MIC for this compound: C=C[C@]1(C)C[C@@H](OC(=O)CSc2nc(NC(=O)CN3CCCC3)nc3[nH]cnc23)[C@@]2(C)C3C(=O)CC[C@@]3(CC[C@H]2C)[C@@H](C)[C@@H]1O (stereo partly specified)
result: 2

query: Looking for the measured MIC of C=C[C@]1(C)C[C@@H](OC(=O)CSc2nc(N)nc3c2ncn3C(=O)NCc2cccc([N+](=O)[O-])c2)[C@@]2(C)C3C(=O)CC[C@@]3(CC[C@H]2C)[C@@H](C)[C@@H]1O (stereo partly specified) , can you help?
result: 0.0625

query: For the compound shown here, C=C[C@]1(C)C[C@@H](OC(=O)CSc2nc(N)nc3c2ncn3C(=O)Nc2ccc(C(C)=O)cc2)[C@@]2(C)C3C(=O)CC[C@@]3(CC[C@H]2C)[C@@H](C)[C@@H]1O (stereo partly specified) , give the reported MIC.
result: 0.062

query: Find the recorded MIC belonging to C=C[C@]1(C)C[C@@H](OC(=O)CSc2nc(N)nc3c2ncn3C(=O)NCc2ccc(OC)cc2)[C@@]2(C)C3C(=O)CC[C@@]3(CC[C@H]2C)[C@@H](C)[C@@H]1O (stereo partly specified) and report it.
result: 0.125

query: Requested read-out: MIC. Entry: C=C[C@]1(C)C[C@@H](OC(=O)CSc2nc(NC(=O)CN3CCNCC3)nc3[nH]cnc23)[C@@]2(C)C3C(=O)CC[C@@]3(CC[C@H]2C)[C@@H](C)[C@@H]1O (stereo partly specified)
result: 32
